melting point listing for selected compounds.

Before answering, review these 3 worked examples.
Exam item: Quick one: give measured melting point for Cc1cc(OC(C)c2ccc(-c3ccccc3-c3nnn(C(c4ccccc4)(c4ccccc4)c4ccccc4)n3)cc2)c2ccccc2n1 (stereo not given)
Marked response: 160 to 161 °C

Exam item: Assign melting point to the following record: Cc1cc(C)c(CCCC(C)(C)O)c(O)c1
Marked response: 128 °C

Exam item: Fill in reported melting point for this entry: O=C1CCN(Cc2cccnc2)C(=O)C1=C1SC=CS1
Marked response: 132 to 133 °C

Others:
Exam item: Look up and report measured melting point for this entry: CNc1nc(-c2cccnc2)nc(SC)c1C(=O)Nc1ccc(OC)cc1
Marked response: 184 to 197 °C

Exam item: Identify the reported melting point for the following entry. O=C(O)C[C@@H](Oc1c(Br)cc(-c2c3ccccc3c(Br)c3sc4ccccc4c23)cc1Br)C(=O)O
Marked response: 163 to 164 °C

* * *

REPORTED ENDPOINT: melting point

Answered cases to consult:
Exam item: Hello, please tell me recorded melting point for this one: CC(C)C1=C(C#N)C(c2cccc(N3CCOCC3)c2)c2c[nH]nc2N1 (stereo unspecified)
Marked response: 254 to 257 °C

Exam item: Quick one: give measured melting point for NC(=O)Cc1c(C(=O)c2ccccc2)[nH]c2cc(Cl)ccc12
Marked response: 234 to 237 °C

Exam item: Answer with the recorded melting point for the compound listed here: Fc1cc(CC2(Cc3ccncc3)c3ccccc3Oc3ccccc32)ccn1
Marked response: 180 to 181 °C

Exam item: Supply melting point value. Item: O=C(O)Cc1cc(C(=O)c2cccc(F)c2)ccc1O
Marked response: 171 °C

Exam item: Please report the measured melting point for CC(N)C(N)CC(=O)c1ccccc1 (stereo unspecified)
Marked response: 106 to 107 °C

Exam item: Given the compound CCc1cc(C)cc(CC)c1C(C(=O)NC)C(=O)NC , write its reported melting point.
Marked response: 98 to 100 °C

Exam item: # return recorded melting point for input COC(=O)CC1c2cc([N+](=O)[O-])ccc2N(C(C)=O)C1C (stereo unspecified)
Marked response: 106 °C

Exam item: Report melting point, nothing else, for this compound: CSC(SC)=C(Cl)c1cccc(C(=O)c2ccccc2)c1
Marked response: 94 to 96 °C

Exam item: Quick one: give measured melting point for CC(C)(C)ON=C1CC(=NOC(C)(C)C)c2ccccc2-c2ccccc21
Marked response: 181 to 183 °C

Exam item: Entry O=C(Nc1ccc(Cl)cc1)NS(=O)(=O)c1ccc2c(c1)CCC2 needs its melting point filled in; supply it.
Marked response: 169 to 172 °C

***
Exam item: Report melting point for Nc1ncccc1CCc1ccccc1
Marked response: 106 to 108 °C

Exam item: Output melting point of OC(c1cc(F)ccc1F)c1cc(Cl)ncc1Cl (stereo unspecified)
Marked response: 160 to 161 °C

Exam item: Provide measured melting point value, entry: CCC(Cl)C(=O)Nc1c(C(=O)CC(=O)Nc2ccccn2)cccc1C(F)(F)F (stereo unspecified)
Marked response: 137 °C

* * *

REPORTED ENDPOINT: melting point

Examples with their reported melting point follow.
Exam item: For Cc1cc(C)c2c(c1O)C(NS(C)(=O)=O)CC2 (centres undefined) , write its melting point.
Marked response: 114 to 116 °C

Exam item: Supply melting point value. Item: COc1ccc(C2CCN(CCC3CCCCc4ccccc43)CC2)cc1OC (centres undefined)
Marked response: 127 to 128 °C

Exam item: Specify melting point for CCOC(=O)c1ccc(OCCCCCCCCCCC(C(=O)CC)C(=O)CC)cc1 and stop.
Marked response: 45 to 46 °C

Exam item: Dear colleague, please send me the reported melting point for CC(=O)NCCn1c(=O)[nH]c2ccccc21 when you can.
Marked response: 153 °C

Exam item: Hello, please tell me recorded melting point for this one: Cn1c(C(=O)c2ccc(F)cc2)cc2cc(OCc3ccccc3)ccc21
Marked response: 118 to 120 °C

Next:
Exam item: Please supply the value of reported melting point for the item C[C@@H](n1cnc2cc(OCC(F)F)ccc2c1=O)[C@](O)(Cn1cncn1)c1ccc(F)cc1F
Marked response: 96 to 102 °C

Exam item: Return melting point for the following compound: COC(=O)c1cccc(Oc2cccc(-c3nnc(N(Cc4ccc(C(F)(F)P(=O)(O)O)c(Cl)c4)c4ccc(Cl)c(Cl)c4)s3)c2)c1
Marked response: 73 to 76 °C

Exam item: Indicate its recorded melting point; the compound in question is O=c1ccc2ccc(CNCCNc3ccccc3)cc2o1
Marked response: 81 to 83 °C

Exam item: Give the reported melting point for this compound. COC(=O)COc1cccc2c1CCC(n1nc(-c3c(-c4ccccc4)nn4ccccc34)ccc1=O)C2=O (centres undefined)
Marked response: 175 to 176 °C

Exam item: Note down melting point recorded for NS(=O)(=O)c1cnccc1C1=NOCCO1
Marked response: 163 to 164 °C

Exam item: Report melting point for O=C(Nc1ccc(C(F)(F)F)cc1)N1CC2CSc3cc(Cl)ccc3C2=N1 (centres undefined)
Marked response: 188 to 192 °C

Exam item: Recall and state the measured melting point for CCCCCCCCCc1ccc(C(=O)O)c(O)c1 .
Marked response: 94 to 97 °C

Exam item: Identify measured melting point corresponding to O=C(O)C1COc2cc(Cl)c(Cl)cc2O1 (centres undefined)
Marked response: 155 to 158 °C

Exam item: Report melting point, nothing else, for this compound: COC(=O)c1ccc(-c2nnc(-c3cccc(NC(=O)Nc4ccc(C(C)C)cc4)c3)o2)cc1
Marked response: > 270 °C

Exam item: Supply measured melting point of CCCc1nc(C(=O)C(C)(C)C)c(C#N)n1Cc1ccc(-c2ccccc2-c2nnnn2C(c2ccccc2)(c2ccccc2)c2ccccc2)cc1 in your reply.
Marked response: 107 to 110 °C

Exam item: # return recorded melting point for entry CC1(C)C[C@@H](n2c(=O)c(Cl)nc3ccccc32)c2cc(C#N)ccc2O1
Marked response: 174 to 176 °C
